- System: Italian ryegrass (Lolium multiflorum)
- assay explanation: Test B pre-/postemergence plant response
- Assay type: in vivo
- recorded conditions: Postemergence, 31 g ai/ha; 0 to 100 scale (0 no effect, 100 complete control)
For each record, write down the corresponding Plant response rating, Ryegrass, Italian.
Keep it simple and answer with nothing but the number.

Ask: Identify Plant response rating, Ryegrass, Italian associated with the compound O=C1CCCC(O)=C1C(=O)c1cnc(-c2ccccc2)n(C2CCSCC2)c1=O [Compound 164]
Reply: 5

Ask: Identify Plant response rating, Ryegrass, Italian associated with the compound CCCn1c(-c2cc(C)cc(C)c2)ncc(C(=O)C2=C(O)CCCC2=O)c1=O [Compound 156]
Reply: 0

Ask: Identify Plant response rating, Ryegrass, Italian associated with the compound CCCCn1c(-c2cccc(Cl)c2)ncc(C(=O)C2=C(O)CCCC2=O)c1=O [Compound 146]
Reply: 5

Ask: Identify Plant response rating, Ryegrass, Italian associated with the compound COCCn1c(-c2ccsc2)ncc(C(=O)C2=C(O)C3CCC(C3)C2=O)c1=O (centres unmarked) [Compound 228]
Reply: 0

Ask: Identify Plant response rating, Ryegrass, Italian associated with the compound COCCn1c(-c2cccc(F)c2)ncc(C(=O)C2=C(O)CCCC2=O)c1=O [Compound 123]
Reply: 0

Ask: Identify Plant response rating, Ryegrass, Italian associated with the compound O=C1CCCC(O)=C1C(=O)c1cnc(-c2ccccc2)n(C2CCCC2)c1=O [Compound 131]
Reply: 0

Ask: Identify Plant response rating, Ryegrass, Italian associated with the compound Cc1ccc(Cl)cc1-n1c(-c2cccc(F)c2)ncc(C(=O)C2=C(O)CCCC2=O)c1=O [Compound 184]
Reply: 20

Ask: Identify Plant response rating, Ryegrass, Italian associated with the compound O=C(C1=C(O)C2CCC(C2)C1=O)c1cnc(-c2ccsc2)n(CC2CCCO2)c1=O (centres unmarked) [Compound 229]
Reply: 0
